// provenance: patent US6713265

Target: T1, canine Y5 receptor (canine, UniProt O62729 1-446)
T1 construct: Transiently expressed in COS-7 cells; also called canine (beagle) Y5; BO11
T1 sequence: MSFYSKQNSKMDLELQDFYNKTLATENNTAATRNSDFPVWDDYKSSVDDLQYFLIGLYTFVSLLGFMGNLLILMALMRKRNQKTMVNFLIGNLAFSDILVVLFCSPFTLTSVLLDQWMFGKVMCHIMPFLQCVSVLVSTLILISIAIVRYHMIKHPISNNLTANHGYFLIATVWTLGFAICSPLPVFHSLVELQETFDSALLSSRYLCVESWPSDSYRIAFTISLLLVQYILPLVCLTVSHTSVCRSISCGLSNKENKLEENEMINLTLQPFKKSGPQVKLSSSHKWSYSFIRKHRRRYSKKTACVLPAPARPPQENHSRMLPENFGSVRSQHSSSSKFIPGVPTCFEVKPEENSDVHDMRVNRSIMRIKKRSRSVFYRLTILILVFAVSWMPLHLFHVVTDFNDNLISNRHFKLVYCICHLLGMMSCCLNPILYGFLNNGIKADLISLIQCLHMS
Assay: 125I-PYY displacement, COS-7 membranes
Ends that are not written are not given here.
The reader will find reported pKi values listed item by item below.
Remember, pKi is on a log scale: it is -log10 of the molar concentration.

Example entries and their recorded answers appear below.
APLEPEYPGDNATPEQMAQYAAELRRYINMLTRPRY (peptide, UniProt P01302 30-65, looked up, mature; also called PP, bovine) [bovine PP] : 8.00
PAEDLARYYSALRHYINLITRQRY (peptide, UniProt P01304 22-45, looked up, ends and bridges not checked, range 13-36; Range counted on the mature peptide; also called NPY13-36, porcine) [porcine NPY13-36] : 6.92
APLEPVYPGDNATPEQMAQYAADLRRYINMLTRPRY (peptide, UniProt P01298 30-65, looked up, mature; also called PP, human; human pancreatic polypeptide) [human PP] : 8.20

Next binder, pKi to be filled in.
Data request: Indicate the recorded pKi value for this binder: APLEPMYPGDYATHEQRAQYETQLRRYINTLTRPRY (peptide, UniProt P06303 30-65, looked up, mature; also called PP, rat) [rat PP]
Data returned: 6.80
